# Test system: Huh7 cells
# protocol.notes: Cell toxicity / cell ratio in the ZIKV high content assay
# study.conditions: in our assay; library screened at 20 µM, Huh7, 72 h
Numbered stars: 1 amine (or outer) side, 2 acyl side, 3 side chain; on linkers, the order of the positions; unused ones are H or OH. Bridge positions count the residues as written; N and C are the ends. Square brackets hold non-standard residues; d marks the D form. Peptide text beside a SMILES is read from it. I, II: the chains in the order shown. Actinocin(9to1) = Cc1c2oc3c(C)ccc(C(=O)[*:1])c3nc-2c(C(=O)[*:2])c(N)c1=O; NMeV = CN[C@H](C(=O)O)C(C)C; Sar = CNCC(=O)O
recorded.endpoint: toxicity

The cases that follow already have their toxicity on record.
{"columns": ["compound", "reported.result"],
 "data": [
  ["Cn1cnc([N+](=O)[O-])c1Sc1ncnc2nc[nH]c12", "higher than 50%"],
  ["C[C@H]1O[C@@H](O[C@H]2[C@@H](O)C[C@H](O[C@H]3[C@@H](O)C[C@H](O[C@H]4CC[C@@]5(C)[C@H](CC[C@@H]6[C@@H]5C[C@@H](O)[C@]5(C)[C@@H](C7=CC(=O)OC7)CC[C@]65O)C4)O[C@@H]3C)O[C@@H]2C)C[C@H](O)[C@@H]1O", "higher than 50%"],
  ["COC(=O)Nc1nc2ccc(C(=O)c3ccccc3)cc2[nH]1", "higher than 50%"],
  ["OC(c1cc(C(F)(F)F)nc2c(C(F)(F)F)cccc12)C1CCCCN1 (centres unmarked)", "higher than 50%"]
]}

In the following, a different compound is considered.
Query: Entry Cc1c2oc3c(C)ccc(C(=O)N[C@@H]4C(=O)N[C@H](C(C)C)C(=O)N5CCC[C@H]5C(=O)N(C)CC(=O)N(C)[C@@H](C(C)C)C(=O)O[C@@H]4C)c3nc-2c(C(=O)N[C@@H]2C(=O)N[C@H](C(C)C)C(=O)N3CCC[C@H]3C(=O)N(C)CC(=O)N(C)[C@@H](C(C)C)C(=O)O[C@@H]2C)c(N)c1=O [Dactinomycin] (I: T[dV]P[Sar][NMeV] / II: T[dV]P[Sar][NMeV]; ester I:1-I:C, II:1-II:C; linker I:N-II:N via Actinocin(9to1)) : reported toxicity = ?
Response: higher than 50%

Taken from paper PMC5112578.
